Values compiled from paper PMC9487190.

- Measured Target: EgSERT (Echinococcus granulosus, UniProt W6UF91)
- Type: cell-based
- Conditions Used: 50 nM radiolabeled substrate, 10 min, room temperature, COS-7 cells
Measured Parameter: transport of radiolabeled substrate by EgSERT compared with background

Compound: NCCc1ccc(O)c(O)c1 [dopamine]
Measured Target: EgSERT (Echinococcus granulosus, UniProt W6UF91)
Recorded Value: does not transport
//
Compound: N[C@@H](CCC(=O)O)C(=O)O [glutamate, glutamic acid]
Measured Target: EgSERT (Echinococcus granulosus, UniProt W6UF91)
Recorded Value: does not transport
//
Compound: NCCCC(=O)O [GABA]
Measured Target: EgSERT (Echinococcus granulosus, UniProt W6UF91)
Recorded Value: does not transport
//
Compound: NCC(=O)O [glycine]
Measured Target: EgSERT (Echinococcus granulosus, UniProt W6UF91)
Recorded Value: does not transport
